system: B6C3F1 mice, B16 melanoma ip, median survival T/C; experiment: NCI In Vivo Anticancer Drug Screen. Data for tumor model B16 Melanoma (intraperitoneal) in B6C3F1 mice; conditions: endpoint: median survival time; dose: 25.0 mg/kg/injection; schedule: Q01DX009 (ip); vehicle: Klucel (hydroxypropylcellulose) (HPC)
Inconclusive results and toxic doses are left out. Rule for the calls: active = survival T/C of 150% or more; inactive = T/C below 125% in these data. Where a SMILES comes first, the peptide text is derived from it. [ ]: non-standard residue; d: D form. The star is where a group is joined. ξ: configuration not given here. Cbz = O=C(OCc1ccccc1)*; OBn = c1ccc(CO*)cc1; Bn = c1ccc(C*)cc1; ξC = NC(CS)C(=O)O
Classes to choose from: active, inactive

>  <molecule>
CC(C)CC(NC(=O)C(CSCc1ccccc1)NC(=O)OCc1ccccc1)C(N)=O (centres undefined) (Cbz-Cys(Bn)-Leu-NH2; configuration not given here)

>  <study_target>
B6C3F1 mice, B16 melanoma ip, median survival T/C

>  <assigned_category>
inactive

$$$$
>  <molecule>
NC(=O)CCC(NC(=O)OCc1ccccc1)C(=O)NCC(=O)O (centres undefined)

>  <study_target>
B6C3F1 mice, B16 melanoma ip, median survival T/C

>  <assigned_category>
inactive

$$$$
>  <molecule>
CSc1nc(N)cc(NC(=O)CCl)n1

>  <study_target>
B6C3F1 mice, B16 melanoma ip, median survival T/C

>  <assigned_category>
inactive

$$$$
>  <molecule>
O=C([O][Bi]([c]1ccccc1)[c]1ccccc1)c1ccccc1

>  <study_target>
B6C3F1 mice, B16 melanoma ip, median survival T/C

>  <assigned_category>
inactive

$$$$
>  <molecule>
[N-]=[N+]=CC(=O)CCC(NC(=O)OCc1ccccc1)C(=O)OCc1ccccc1 (centres undefined)

>  <study_target>
B6C3F1 mice, B16 melanoma ip, median survival T/C

>  <assigned_category>
inactive

$$$$
>  <molecule>
CC(C)CC(NC(=O)OCC1c2ccccc2-c2ccccc21)C(=O)O (centres undefined)

>  <study_target>
B6C3F1 mice, B16 melanoma ip, median survival T/C

>  <assigned_category>
inactive

$$$$
>  <molecule>
O=C(O)C1C2CC3C(C2)C31.[Ag] (centres undefined)

>  <study_target>
B6C3F1 mice, B16 melanoma ip, median survival T/C

>  <assigned_category>
inactive

$$$$
>  <molecule>
COCC1OC2OC3C(COC)OC(OC4C(COC)OC(OC5C(COC)OC(OC6C(COC)OC(OC7C(COC)OC(OC8C(COC)OC(OC1C(O)C2O)C(O)C8O)C(O)C7O)C(O)C6O)C(O)C5O)C(O)C4O)C(O)C3O (centres undefined) (tested in a mixture with another compound)

>  <study_target>
B6C3F1 mice, B16 melanoma ip, median survival T/C

>  <assigned_category>
inactive

$$$$
>  <molecule>
C[C@]12CC[C@@H]3c4ccc(O)cc4CC[C@H]3[C@@H]1CC[C@@H]2O

>  <study_target>
B6C3F1 mice, B16 melanoma ip, median survival T/C

>  <assigned_category>
inactive

$$$$
>  <molecule>
CC(=O)NC(CCc1ccc(Cl)c(Cl)c1)c1cccc(O)c(=O)c1 (centres undefined)

>  <study_target>
B6C3F1 mice, B16 melanoma ip, median survival T/C

>  <assigned_category>
inactive

$$$$

Please turn your attention to the following entry.
Call for entry O=C(CNC(=O)C(CSCc1ccccc1)NC(=O)OCc1ccccc1)NCC(=O)OCc1ccccc1 (stereo not drawn) (Cbz-[ξC](Bn)-Gly-Gly-OBn) : inactive
